Data credit: patent US11617735B2

Method Summary: Solubility in solvents by UHPLC assay
Type: physicochemical
Condition Description: DMF, 30 °C, organic solvent or mixture, DMF, 30 °C; read-out: Solubility
Value Type: solubility

                                 mol_smiles       result
0  CS(=O)(=O)c1ccc(C2=C(c3ccccc3)C(=O)OC2)cc1  > 100 mg/mL

---

Method Summary: Solubility in solvents by UHPLC assay
Type: physicochemical
Condition Description: ethyl acetate, 30 °C, organic solvent or mixture, Ethyl acetate, 30 °C; read-out: Solubility
Value Type: solubility

In [3]: df
Out[3]:
                                   compound  value_type     result
0  CS(=O)(=O)c1ccc(C2=C(c3ccccc3)C(=O)OC2)cc1 [Rofecoxib]  solubility  4.7 mg/mL

---

Method Summary: Solubility in solvents by UHPLC assay
Type: physicochemical
Condition Description: anisole, 30 °C, organic solvent or mixture, Anisole, 30 °C; read-out: Solubility
Value Type: solubility (mg/mL)

>>> df
                                 mol_smiles  scale_unit  quantitative_readout
0  CS(=O)(=O)c1ccc(C2=C(c3ccccc3)C(=O)OC2)cc1       mg/mL                    22

---

Method Summary: Solubility in solvents by UHPLC assay
Type: physicochemical
Condition Description: NMP, 30 °C, organic solvent or mixture, NMP, 30 °C; read-out: Solubility
Value Type: solubility

In [3]: df
Out[3]:
                                 mol_smiles  value_type       result
0  CS(=O)(=O)c1ccc(C2=C(c3ccccc3)C(=O)OC2)cc1  solubility  > 100 mg/mL

---

Method Summary: Solubility in solvents by UHPLC assay
Type: physicochemical
Condition Description: DMSO, 50 °C, organic solvent or mixture, DMSO, 50 °C; read-out: Solubility
Procedure: The tool called “Early phase solvent selection: solubility prediction” was used. This tool allows to predict the solubility of material in a large scope of solvents, knowing the solubility in some of them. […] Since the main purpose of the recrystallization is to decrease the rate of one single identified impurity, 4-[4-(methylsulfinyl)phenyl]-3-phenyl-2(5H)-furanone solubilities were measured in a couple of probable antisolvents identified in Table 9. […]
Value Type: solubility (mg/mL)

In [3]: df
Out[3]:
                                 mol_smiles  value_type  quantitative_readout
0  CS(=O)(=O)c1ccc(C2=C(c3ccccc3)C(=O)OC2)cc1  solubility                   181

---

Method Summary: Solubility in solvents by UHPLC assay
Assay type: physicochemical
Condition Description: DMSO, 20 °C, organic solvent or mixture, DMSO, 20 °C; read-out: Solubility
Value Type: solubility (mg/mL)

In [3]: df
Out[3]:
                                   compound  scale_unit  quantitative_readout
0  CS(=O)(=O)c1ccc(C2=C(c3ccccc3)C(=O)OC2)cc1 [Rofecoxib]       mg/mL                    93

---

Method Summary: Solubility in solvents by UHPLC assay
Type: physicochemical
Condition Description: acetic acid, organic solvent or mixture, acetic acid, temperature not stated; read-out: Solubility in acetic acid
Value Type: solubility

In [3]: df
Out[3]:
                                   molecule  value_type        result
0  C[S+]([O-])c1ccc(C2=C(c3ccccc3)C(=O)OC2)cc1 (stereo not shown) [A-STG4-01]  solubility  > 1000 mg/mL
